Reference source for all entries: patent US20120172293A1

Target: T1, human Y2 receptor (human, UniProt P49146 1-381)
T1 sequence (looked up): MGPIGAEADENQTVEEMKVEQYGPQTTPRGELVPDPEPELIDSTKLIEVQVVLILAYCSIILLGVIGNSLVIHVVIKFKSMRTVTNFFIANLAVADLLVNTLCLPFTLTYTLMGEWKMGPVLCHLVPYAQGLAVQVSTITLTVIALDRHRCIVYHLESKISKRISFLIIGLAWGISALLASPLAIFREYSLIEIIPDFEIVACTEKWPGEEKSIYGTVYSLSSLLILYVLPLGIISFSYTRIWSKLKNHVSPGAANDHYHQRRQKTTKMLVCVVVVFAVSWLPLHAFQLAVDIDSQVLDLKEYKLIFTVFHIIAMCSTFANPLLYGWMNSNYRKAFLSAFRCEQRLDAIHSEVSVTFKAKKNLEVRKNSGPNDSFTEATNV
Assay: cell-based or functional assay
Starred links: 1 amine or outer side, 2 acyl side, 3 side chain; linkers in the order of their positions; H or OH if unused. Non-standard residues stand in square brackets, D forms with d. No end group written: not given here. Tyr(Me) = O-methyltyrosine, COc1ccc(C[C@H](N[*:1])C(=O)[*:2])cc1; Phe(4-F) = N[C@@H](Cc1ccc(F)cc1)C(=O)O; 1Nal = N[C@@H](Cc1cccc2ccccc12)C(=O)O; Cha = N[C@@H](CC1CCCCC1)C(=O)O; hLeu = CC(C)CC[C@H](N)C(=O)O; 4Amb = NCc1ccc(C(=O)O)cc1; Aib = CC(C)(N)C(=O)O
# binarize GBA EC50 Ratio (vs PYY(3-36)), [35S]GTPγS: threshold 5 ratio inclusive, high side condition met, low side condition not met

{"columns": ["binder", "class assignment"],
 "data": [
  ["Ac-S[dP]RH[Cha][Cha]NL[Aib]TRQR[hLeu]-NH2 (SMILES CC(=O)N[C@@H](CO)C(=O)N1CCC[C@@H]1C(=O)N[C@@H](CCCNC(=N)N)C(=O)N[C@@H](Cc1c[nH]cn1)C(=O)N[C@@H](CC1CCCCC1)C(=O)N[C@@H](CC1CCCCC1)C(=O)N[C@@H](CC(N)=O)C(=O)N[C@@H](CC(C)C)C(=O)NC(C)(C)C(=O)N[C@H](C(=O)N[C@@H](CCCNC(=N)N)C(=O)N[C@@H](CCC(N)=O)C(=O)N[C@@H](CCCNC(=N)N)C(=O)N[C@@H](CCC(C)C)C(N)=O)[C@@H](C)O, also called compound No. 199) [Ac-[D-Pro24, Cha27,28, Aib31, homoLeu36]-PYY(23-36)]", "condition met"],
  ["Ac-S[dP]RH[Cha][Aib]NK[Aib]TRQR[Cha]-NH2 (SMILES CC(=O)N[C@@H](CO)C(=O)N1CCC[C@@H]1C(=O)N[C@@H](CCCNC(=N)N)C(=O)N[C@@H](Cc1c[nH]cn1)C(=O)N[C@@H](CC1CCCCC1)C(=O)NC(C)(C)C(=O)N[C@@H](CC(N)=O)C(=O)N[C@@H](CCCCN)C(=O)NC(C)(C)C(=O)N[C@H](C(=O)N[C@@H](CCCNC(=N)N)C(=O)N[C@@H](CCC(N)=O)C(=O)N[C@@H](CCCNC(=N)N)C(=O)N[C@@H](CC1CCCCC1)C(N)=O)[C@@H](C)O, also called compound No. 135) [Ac-[D-Pro24, Cha27,36, Aib28, Lys30, Aib31]-PYY(23-36)]", "condition not met"],
  ["[4Amb]RAYANLITRQRY-NH2 (N-terminus assumed; SMILES CC[C@H](C)[C@H](NC(=O)[C@H](CC(C)C)NC(=O)[C@H](CC(N)=O)NC(=O)[C@H](C)NC(=O)[C@H](Cc1ccc(O)cc1)NC(=O)[C@H](C)NC(=O)[C@H](CCCNC(=N)N)NC(=O)c1ccc(CN)cc1)C(=O)N[C@H](C(=O)N[C@@H](CCCNC(=N)N)C(=O)N[C@@H](CCC(N)=O)C(=O)N[C@@H](CCCNC(=N)N)C(=O)N[C@@H](Cc1ccc(O)cc1)C(N)=O)[C@@H](C)O, also called compound No. 31) [4-Aminomethylbenzoyl-[Ala26,28, Ile31]-PYY(25-36)]", "condition met"],
  ["[4Amb]RAYIN[Aib]ITRQRY-NH2 (N-terminus assumed; SMILES CC[C@H](C)[C@H](NC(=O)[C@H](Cc1ccc(O)cc1)NC(=O)[C@H](C)NC(=O)[C@H](CCCNC(=N)N)NC(=O)c1ccc(CN)cc1)C(=O)N[C@@H](CC(N)=O)C(=O)NC(C)(C)C(=O)N[C@H](C(=O)N[C@H](C(=O)N[C@@H](CCCNC(=N)N)C(=O)N[C@@H](CCC(N)=O)C(=O)N[C@@H](CCCNC(=N)N)C(=O)N[C@@H](Cc1ccc(O)cc1)C(N)=O)[C@@H](C)O)[C@@H](C)CC, also called compound No. 47) [4-Aminomethylbenzoyl-[Ala26, Ile28,31, Aib30]-PYY(25-36)]", "condition met"],
  ["[4Amb]RAYINLITRQR[Tyr(Me)]-NH2 (N-terminus assumed; SMILES CC[C@H](C)[C@H](NC(=O)[C@H](Cc1ccc(O)cc1)NC(=O)[C@H](C)NC(=O)[C@H](CCCNC(=N)N)NC(=O)c1ccc(CN)cc1)C(=O)N[C@@H](CC(N)=O)C(=O)N[C@@H](CC(C)C)C(=O)N[C@H](C(=O)N[C@H](C(=O)N[C@@H](CCCNC(=N)N)C(=O)N[C@@H](CCC(N)=O)C(=O)N[C@@H](CCCNC(=N)N)C(=O)N[C@@H](Cc1ccc(OC)cc1)C(N)=O)[C@@H](C)O)[C@@H](C)CC, also called compound No. 7) [4-Aminomethylbenzoyl-[Ala26, Ile28,31, Tyr(Me)36]-PYY(25-36)]", "condition not met"],
  ["[4Amb]RAYINLITRQR[1Nal]-NH2 (N-terminus assumed; SMILES CC[C@H](C)[C@H](NC(=O)[C@H](Cc1ccc(O)cc1)NC(=O)[C@H](C)NC(=O)[C@H](CCCNC(=N)N)NC(=O)c1ccc(CN)cc1)C(=O)N[C@@H](CC(N)=O)C(=O)N[C@@H](CC(C)C)C(=O)N[C@H](C(=O)N[C@H](C(=O)N[C@@H](CCCNC(=N)N)C(=O)N[C@@H](CCC(N)=O)C(=O)N[C@@H](CCCNC(=N)N)C(=O)N[C@@H](Cc1cccc2ccccc12)C(N)=O)[C@@H](C)O)[C@@H](C)CC, also called compound No. 13) [4-Aminomethylbenzoyl-[Ala26, Ile28,31, Nal(1)36]-PYY(25-36)]", "condition not met"],
  ["[4Amb]RAYIN[Phe(4-F)]ITRQRY-NH2 (N-terminus assumed; SMILES CC[C@H](C)[C@H](NC(=O)[C@H](Cc1ccc(O)cc1)NC(=O)[C@H](C)NC(=O)[C@H](CCCNC(=N)N)NC(=O)c1ccc(CN)cc1)C(=O)N[C@@H](CC(N)=O)C(=O)N[C@@H](Cc1ccc(F)cc1)C(=O)N[C@H](C(=O)N[C@H](C(=O)N[C@@H](CCCNC(=N)N)C(=O)N[C@@H](CCC(N)=O)C(=O)N[C@@H](CCCNC(=N)N)C(=O)N[C@@H](Cc1ccc(O)cc1)C(N)=O)[C@@H](C)O)[C@@H](C)CC, also called compound No. 58) [4-Aminomethylbenzoyl-[Ala26, Ile28,31, Phe(4F)30]-PYY(25-36)]", "condition not met"],
  ["[4Amb][dR]AYINLITRQRY-NH2 (N-terminus assumed; SMILES CC[C@H](C)[C@H](NC(=O)[C@H](Cc1ccc(O)cc1)NC(=O)[C@H](C)NC(=O)[C@@H](CCCNC(=N)N)NC(=O)c1ccc(CN)cc1)C(=O)N[C@@H](CC(N)=O)C(=O)N[C@@H](CC(C)C)C(=O)N[C@H](C(=O)N[C@H](C(=O)N[C@@H](CCCNC(=N)N)C(=O)N[C@@H](CCC(N)=O)C(=O)N[C@@H](CCCNC(=N)N)C(=O)N[C@@H](Cc1ccc(O)cc1)C(N)=O)[C@@H](C)O)[C@@H](C)CC, also called compound No. 9) [4-Aminomethylbenzoyl-[D-Arg25, Ala26, Ile28,31]-PYY(25-36)]", "condition met"]
]}
